Catalogue of compounds with associated pIC50
System: Aβ1-42 production in H4 cells stably transfected with APP751 containing the Swedish mutation
Test: Cellular assay for inhibition of Aβ1-42 production (H4 APP751 SWE clone 8.20)
Type: cell-based
Details: 19 h, H4 APP751 SWE clone 8.20 cells, 19 h incubation; read-out: Aβ42 cellular IC50
Structures can show the parent of a compound that is named as a salt.
Kindly note that pIC50 refers to -log10 of the concentration in mol/L and answer with the value alone.

Worked examples, 2 compounds total:
>  <compound>
C[C@]12N=C(N)SC[C@H]1CCCc1ccc(-c3cncnc3)cc12 (relative stereo)

>  <quantitative_readout>
5.47

$$$$
>  <compound>
NC1=N[C@H]2c3cc(-c4cncnc4)ccc3CCC[C@H]2CS1

>  <quantitative_readout>
4.55

$$$$

In plain terms, C[C@]12N=C(N)SC[C@H]1CCc1ccc(NC(=O)c3ccc(Cl)cn3)cc12 [Example 7b] has a documented pIC50 of 5.92

In plain terms, `C[C@@]12N=C(N)SC[C@@H]1CCCc1ccc(NC(=O)c3ccc(Cl)cn3)cc12` has a documented pIC50 of 5.17

In plain terms, C[C@]12N=C(N)SC[C@H]1CCOc1ccc(-c3cc4cc(C#N)ccc4[nH]3)cc12 (relative stereo) [Example 28, 2,2,2-trifluoroacetate salt] has a documented pIC50 of 5.01

In plain terms, C[C@]12N=C(N)SC[C@H]1CCOc1ccc(-c3cncnc3)cc12 (relative stereo) has a documented pIC50 of 5.54

In plain terms, C[C@]12N=C(N)SC[C@H]1CCc1ccc(-c3cncc(Cl)c3)cc12 (relative stereo) [Example 6, bis(2,2,2-trifluoroacetate)] has a documented pIC50 of 5.59

In plain terms, C[C@]12N=C(N)SC[C@H]1CCCc1ccc(NC(=O)c3ccc(C#N)cn3)cc12 [Example 44b] has a documented pIC50 of 7.68
